Below: a set of entries, each annotated with reported viability, T/C.
experiment: Anticancer human tumor 997537-175-T-J1-PDC patient-derived colon adenocarcinoma cell line growth inhibition [POLQ];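 further: luminescence signal used as a surrogate for viable cells; spheroids exposed to drugs for seven days before readout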
measurement-conditions: 997537-175-T-J1-PDC complex spheroid viability, combination with POLQ inhibitors; second compound 3.16 µM; first compound 10 µM; active compounds read low
recorded-endpoint: viability, T/C (%)

{"columns": ["compound", "quantitative-result"],
 "data": [
  ["O=c1[nH]cc(F)c(=O)[nH]1 + Nc1ccc(C#CCN(C(=O)Cc2ncc(C(F)(F)F)cc2C(F)(F)F)c2ccc(F)cc2)nn1", 72.5],
  ["CCc1cc2c(N3CCc4c(cc(Cn5ccnc5)cc4-c4cn(C)nc4C(F)(F)F)C3=O)cc(C)nc2c(OC)n1 + Cc1cccc(N(C)C(=O)C2C(O)CCN2c2nc(C)cc(C(F)(F)F)c2C#N)c1", 59.5],
  ["Nc1ccn(C2OC(CO)C(O)C2(F)F)c(=O)n1 (configuration not stated) + COC1C(OC(N)=O)C(O)C(Oc2ccc3c(O)c(NC(=O)c4ccc(O)c(CC=C(C)C)c4)c(=O)oc3c2C)OC1(C)C", 62.7],
  ["CC1COCCN1c1cc(-c2ccnn2C)c2ccnc(-c3ccn[nH]3)c2n1 (configuration not stated) + COC1C(OC(N)=O)C(O)C(Oc2ccc3c(O)c(NC(=O)c4ccc(O)c(CC=C(C)C)c4)c(=O)oc3c2C)OC1(C)C", 64.9],
  ["CC1COCCN1c1cc(C2(O)CC3CCC(C2)O3)c2cnn(-c3ccn[nH]3)c2n1 (configuration not stated) + Cc1cccc(N(C)C(=O)C2C(O)CCN2c2nc(C)cc(C(F)(F)F)c2C#N)c1", 75.8],
  ["CC(C)n1c(=O)n(C)c2cnc3cc(F)c(-c4ccc(OCCCN5CCCCC5)nc4)cc3c21 + Cc1cccc(N(C)C(=O)C2C(O)CCN2c2nc(C)cc(C(F)(F)F)c2C#N)c1", 73.6],
  ["COc1cc(C2c3cc4c(cc3C(OC3OC5COC(C)OC5C(O)C3O)C3COC(=O)C23)OCO4)cc(OC)c1O (configuration not stated) + Cc1cccc(N(C)C(=O)C2C(O)CCN2c2nc(C)cc(C(F)(F)F)c2C#N)c1", 69.4],
  ["COc1ccc([C@@H](O)c2cc(-c3ncnc4cc(N5CCOCC5)ccc34)c(F)cc2Cl)nn1 + Nc1ccc(C#CCN(C(=O)Cc2ncc(C(F)(F)F)cc2C(F)(F)F)c2ccc(F)cc2)nn1", 82.1],
  ["CCc1cc2c(N3CCc4c(cc(Cn5ccnc5)cc4-c4cn(C)nc4C(F)(F)F)C3=O)ccnc2c(OC)n1 + Cc1cccc(N(C)C(=O)C2C(O)CCN2c2nc(C)cc(C(F)(F)F)c2C#N)c1", 70.1],
  ["CC(C)n1c(=O)n(C)c2cnc3cc(F)c(-c4ccc(OCCCN5CCCCC5)nc4)cc3c21 + COC1C(OC(N)=O)C(O)C(Oc2ccc3c(O)c(NC(=O)c4ccc(O)c(CC=C(C)C)c4)c(=O)oc3c2C)OC1(C)C", 89.8],
  ["COc1cc2cc(C(=O)CCC(=O)O)sc2cc1OC + Cc1cccc(N(C)C(=O)C2C(O)CCN2c2nc(C)cc(C(F)(F)F)c2C#N)c1", 97.8],
  ["CC1COCCN1c1cc(-c2ccnn2C)c2ccnc(-c3ccn[nH]3)c2n1 (configuration not stated) + Nc1ccc(C#CCN(C(=O)Cc2ncc(C(F)(F)F)cc2C(F)(F)F)c2ccc(F)cc2)nn1", 82],
  ["O=C(c1cc(Cc2n[nH]c(=O)c3ccccc23)ccc1F)N1CCN(C(=O)C2CC2)CC1 + Nc1ccc(C#CCN(C(=O)Cc2ncc(C(F)(F)F)cc2C(F)(F)F)c2ccc(F)cc2)nn1", 95.3],
  ["O=C(Nc1ccc(O)c(NS(=O)(=O)c2ccc(F)cc2)c1)c1ccc(-c2ccccc2)cc1 + Nc1ccc(C#CCN(C(=O)Cc2ncc(C(F)(F)F)cc2C(F)(F)F)c2ccc(F)cc2)nn1", 90.9],
  ["O=C(Nc1ccc(O)c(NS(=O)(=O)c2ccc(F)cc2)c1)c1ccc(-c2ccccc2)cc1 + COC1C(OC(N)=O)C(O)C(Oc2ccc3c(O)c(NC(=O)c4ccc(O)c(CC=C(C)C)c4)c(=O)oc3c2C)OC1(C)C", 98.8],
  ["C#Cc1c(F)ccc2cc(O)cc(-c3ncc4c(N5CC6CCC(C5)N6)nc(OCC56CCCN5CC(F)C6)nc4c3F)c12 (configuration not stated) + COC1C(OC(N)=O)C(O)C(Oc2ccc3c(O)c(NC(=O)c4ccc(O)c(CC=C(C)C)c4)c(=O)oc3c2C)OC1(C)C", 95.8],
  ["C#Cc1c(F)ccc2cc(O)cc(-c3ncc4c(N5CC6CCC(C5)N6)nc(OCC56CCCN5CC(F)C6)nc4c3F)c12 (configuration not stated) + Cc1cccc(N(C)C(=O)C2C(O)CCN2c2nc(C)cc(C(F)(F)F)c2C#N)c1", 104]
]}
